Measured values drawn from ChEMBL document CHEMBL1201862 for this set.

Test system: OVCAR-5
measurement-notes: NCI tumour cell line growth inhibition, 48 h
Calls of active or inactive are those of the source. Rule as the data show it: active = GI50 up to about 1.1 µM and inactive = higher.
The reply should be one of these categories: t = active, f = inactive

Worked set:
compound	measured-on	group-label
[N-]=[N+]=C1C(=O)c2ccccc2-c2ccccc21	OVCAR-5	f
C/C(CC(=O)Nc1cccc(Cl)c1C)=N\NC(=O)c1ccncc1	OVCAR-5	f
Cc1ccc2nc(-n3c(/C=C/c4ccccc4O)nc4ccccc4c3=O)sc2c1	OVCAR-5	f
CCC/C(=N\NC(=S)N1CCN(c2ccccn2)CC1)c1ccccn1	OVCAR-5	t
Cc1ccc(OP2(=O)Oc3ccc4ccccc4c3CN2c2ccc(Cl)cc2)cc1C (stereo unspecified)	OVCAR-5	f
O=S(=O)(O)c1ccc(/N=N\c2c(O)ccc3cc(Br)ccc23)cc1	OVCAR-5	f
CC(C)NC(=O)OCc1c2c(n(C)c1COC(=O)NC(C)C)-c1cc(Cl)c(Cl)cc1CC2	OVCAR-5	f
COc1ccc(-c2nc3c(nc2-c2ccc(OC)cc2)C(N)=NS(=O)(=O)N3)cc1	OVCAR-5	f

Which outcome did this test record for the compound C1=C2SSC3=CC=C(SSc4ccc(s4)SSC4=CC=C(SSC(=C1)S2)S4)S3 ?
f

Which outcome did this test record for the compound CCN(CC)CCCNc1nc(=O)[nH]c(C)c1C(=O)Nc1c2ccccc2nc2ccccc12 ?
f

Which outcome did this test record for the compound C=C1C(=O)OC2CC3(CO3)C3C(O)C(O)CC3(C)CC12 (stereo unspecified) ?
f
